- Assay: pH of the salt solutions
- Assay type: physicochemical
- Details: aqueous solution of the salt, Table 5
Endpoint Label: pH
// print number alone

- CC(=O)[C@H]1CC[C@H]2[C@@H]3CC[C@H]4C[C@H](O)CC[C@]4(C)[C@H]3[C@@H](OC(=O)C(C)N3CCCCC3)C[C@]12C (stereo partly drawn) [Example 180]: 3.60

# pH of CCCCN(CC)CC(=O)OC1CC2(C)C(C(C)=O)CCC2C2CCC3CC(O)C(C)CC3(C)C12 (stereo not drawn) [Example 174] = 2.90

The compound CCN(CC)CC(=O)OC1CC2(C)C(C(C)=O)CCC2C2CCC3CC(O)C(OC(C)C)CC3(C)C12 (stereo not drawn) [Example 167] showed pH equal to 3.65

// pH value for CCCCN(CC)CC(=O)O[C@H]1C[C@]2(C)[C@@H](C(C)=O)CC[C@H]2[C@@H]2CC[C@H]3C[C@H](O)CC[C@]3(C)[C@H]21 [Example 220] : 3.6

In plain terms, CC(=O)[C@H]1CC[C@H]2[C@@H]3CC[C@H]4C[C@H](O)CC[C@]4(C)[C@H]3[C@@H](OC(=O)CN3CCCCC3)C[C@]12C [Example 156] has a documented pH of 3.52

Consider CC(=O)[C@H]1CC[C@H]2[C@@H]3CC[C@H]4C[C@H](O)CC[C@]4(C)[C@H]3[C@@H](OC(=O)CN(C)CC(C)(C)C)C[C@]12C [Example 188] . Its measured pH is 2.58

====

- Assay: dissolution of the 11β-aminoester salts in aqueous acid (Table 5 and Examples 101, 225-229)
- Type: physicochemical
- Details: method D: 1 molar part acid, undissolved material weighed; WT. of solution 10 g, except Ex. 136: 8.95; 140: 9.52; 165 and 167: 10.1; 190 and 198: 9.8; 191: 8.9; 194: 6.6; 204: 10.09; 219: 10.6 g
I would appreciate it if you labelled entries satisfied when Dissolved aminoester is 80 mg or higher, otherwise not satisfied.

Consider the worked cases shown below.
* CCN(CC)CC(=O)O[C@H]1C[C@]2(C)[C@@H](C(C)=O)CC[C@H]2[C@@H]2CC[C@H]3C[C@H](O)[C@@H](SC#N)C[C@]3(C)[C@H]21 [Example 204] | satisfied
* CCN(CC(=O)O[C@H]1C[C@]2(C)[C@@H](C(C)=O)CC[C@H]2[C@@H]2CC[C@H]3C[C@H](O)CC[C@]3(C)[C@H]21)C(C)C [Example 194] | not satisfied
* CCCCNCC(=O)O[C@H]1C[C@]2(C)[C@@H](C(C)=O)CC[C@H]2[C@@H]2CC[C@H]3C[C@H](O)CC[C@]3(C)[C@H]21 [Example 136] | satisfied
* CC(=O)[C@H]1CC[C@H]2[C@@H]3CC[C@H]4C[C@H](O)CC[C@]4(C)[C@H]3[C@@H](OC(=O)CN(C)[C@H](C)CC(C)C)C[C@]12C [Example 198] | satisfied

Here is the next item to consider.
Say whether CC(=O)[C@H]1CC[C@H]2[C@@H]3CC[C@H]4C[C@](C)(O)CC[C@]4(C)[C@H]3[C@@H](OC(=O)CN3CCC(C)CC3)C[C@]12C [Example 134] shows Dissolved aminoester of 80 mg or more.
satisfied
